# TEST: NOD1 signaling inhibitors, primary screen, cell-based, luminescence, uHTS (AID 1578);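 also: HEK-293T reporter cells stimulated with the NOD1 agonist gamma-tri-DAP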
# EXPERIMENTAL CONDITIONS: NOD1-driven NF-kB luciferase reporter cells, at 4 µM
Among all 290,000 compounds or so, about 3,000 (1%) were called active. Rule as the data show it: active = inhibition mostly above about 36% (no sharp cut-off); inactive = mostly below about 34%. The list comes from a sample in which actives are over-represented; it also holds close analogues and randomly drawn compounds.
Labels: label 1 for active, label 0 for inactive

C/C(=N\N=c1/sc2ccccc2n1C)c1ccccn1 = label 0
CN(C)Cc1ccc(F)cc1Sc1ccc(Cl)cc1Cl = label 0
COc1ccccc1/C=N/N(C(C)=O)c1nc(-c2ccc(F)cc2)cs1 = label 0
O=S(=O)(/N=C(/NC(=S)Nc1ccccc1)c1ccccc1)c1ccc(Cl)cc1 = label 0
CN(C)C(=O)c1cc(F)ccc1Sc1cc(Cl)ccc1Cl = label 0
Nc1ccccc1C#Cc1ccccc1 = label 0
CC(C)(C)NC(=O)CSc1nc2[nH]ncc2c(=O)[nH]1 = label 0
CC(=O)N(C(C)=O)S(=O)(=O)c1ccc(N=NN2CCOCC2)cc1 = label 0
O=C(O)c1ccc2c(c1)ncn2C1CCCCC1 = label 0
Cc1ccc(-c2ccc(/C=C(\C#N)C(N)=S)n2C)cc1 = label 0
COc1ccc(-c2cn3c4c(sc3n2)CCCC4)cc1 = label 0
Cc1noc(NC(=O)c2ccc(Cl)c(Cl)c2)c1Cl = label 1
COc1ccc(NS(=O)(=O)c2ccc3oc(SC)nc3c2)cc1 = label 0
COc1cccc(CNC(=O)Cn2cccc2)c1 = label 0
Cc1noc(NC(=O)c2ccc(Cl)cc2)c1Cl = label 0
Nc1ccccc1C#CCCCCO = label 0
Cc1csc(NC(=O)c2ccc(N3CCCC3=O)cc2)n1 = label 1
O=C(COC(=O)c1ccc[nH]c1=O)NCCc1ccc(Cl)cc1Cl = label 0
COc1cccc(CNC(=O)Cc2ccc(Br)cc2)c1 = label 0
Cc1cccc2nc(-c3ccccc3)nc(N3CCC(O)(c4ccc(Cl)cc4)CC3)c12 = label 0
Cc1csc(NC(=O)c2ccc(C(=O)Nc3nc(C)cs3)cc2)n1 = label 0
Cc1noc(NC(=O)c2cccc(C(F)(F)F)c2)c1Cl = label 0
COc1ccc(-n2c(=O)[nH]c3cc(C(=O)NCCc4ccc(Cl)cc4)ccc3c2=O)cc1OC = label 0
CCC(=O)c1c(OCc2ccccc2)ccc2c(C)cc(=O)oc12 = label 0
Cc1cc(C)c(C)c(/C=C(/C#N)C(N)=S)c1C = label 0
